- test-system: LPA1 (Homo sapiens)
- Construct: ProLink (β-galactosidase enzyme-donor fragment)
- Sequence (Q92633 whole entry, the tested form may be a part): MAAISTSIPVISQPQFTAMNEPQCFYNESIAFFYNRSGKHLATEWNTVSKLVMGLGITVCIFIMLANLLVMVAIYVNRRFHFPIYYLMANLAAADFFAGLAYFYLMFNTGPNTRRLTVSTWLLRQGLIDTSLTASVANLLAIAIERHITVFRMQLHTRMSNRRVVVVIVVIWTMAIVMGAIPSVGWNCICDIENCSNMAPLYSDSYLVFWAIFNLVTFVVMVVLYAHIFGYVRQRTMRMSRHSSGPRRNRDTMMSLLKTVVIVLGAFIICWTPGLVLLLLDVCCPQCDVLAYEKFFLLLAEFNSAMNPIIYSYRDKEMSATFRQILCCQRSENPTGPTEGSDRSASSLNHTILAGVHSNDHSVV
- assay-procedure: LPA1 calcium flux assay (LPA1 functional antagonist assay)
- assay-conditions: PathHunter CHO-K1 EDG2 β-Arrestin cells, calcium indicator dye, stimulated with EC80 concentration of LPA, FLIPR
# IC50 annotations

INSERT INTO results (compound, measurement_kind, reported_measurement) VALUES
  ('CCCN(C)C(=O)OCc1c(-c2ccc([C@@H]3CCC[C@@H](CC(=O)O)O3)c(CC)n2)nnn1C (single isomer, unassigned)', 'IC50', '500 to 5000 nM'),
  ('CCc1nc(-c2nnn(C)c2COc2nccc(C3CCC3)n2)ccc1N1CC[C@H]([C@H](C)C(=O)O)C1', 'IC50', '< 100 nM'),
  ('CCc1nc(-c2nnn(C)c2COc2nccc(C3CCC3)n2)ccc1[C@H]1CCC[C@H](CC(=O)O)O1 (single isomer, unassigned)', 'IC50', '100 to 500 nM'),
  ('Cc1nc(-c2nnn(C)c2COc2cc(-n3cccn3)ncn2)ccc1N1CC[C@H](CC(=O)O)C1', 'IC50', '100 to 500 nM');

Task item: Value wanted: IC50 (LPA1 (Homo sapiens)) of entry CCc1nc(-c2nnn(C)c2COc2nccc(C3CCC3)n2)ccc1[C@H]1CCC[C@@H](CC(=O)O)O1 (relative stereo)
Reply: < 100 nM

Task item: Value wanted: IC50 (LPA1 (Homo sapiens)) of entry Cc1nc(-c2nnn(C)c2COc2nccc(C3CCC3)n2)ccc1C1CC(CC(=O)O)CCO1 (stereo not shown)
Reply: 100 to 500 nM

Task item: Value wanted: IC50 (LPA1 (Homo sapiens)) of entry CCCc1ccc(=O)n(Cc2c(-c3ccc(N4CCC(CC(=O)O)C4)c(C)n3)nnn2C)c1 (stereo not shown)
Reply: 500 to 5000 nM
